Data credit: the NIST ThermoML archive (doi:10.1016/j.fluid.2016.02.004)

Record form. Attribute: activity coefficient. Fill in for each entry.
# assay.remarks: activity coefficient (dimensionless); of the first substance listed, at infinite dilution; xn = mol fraction of the nth substance listed
# study.conditions: 338.15 K; Liquid; Chromatography; x1 = 0
One number for each entry.

// batch mode: one activity coefficient value per listed entry
1. CC1CCCCC1 [methylcyclohexane] + CCCCn1cc[n+](C)c1.N#CN=C=[N-]
2. CCCCCCC [heptane] + CCCCn1cc[n+](C)c1.N#CN=C=[N-]
3. CC(C)OC(C)C [diisopropyl ether] + CCCCn1cc[n+](C)c1.N#CN=C=[N-]
4. CCCCO [butan-1-ol] + CCCCn1cc[n+](C)c1.N#CN=C=[N-]
5. C1COCCO1 [1,4-dioxane] + CCCCn1cc[n+](C)c1.N#CN=C=[N-]
6. C=CCCC [1-pentene] + CCCCn1cc[n+](C)c1.N#CN=C=[N-]
7. CCOC(C)(C)C [2-ethoxy-2-methylpropane] + CCCCn1cc[n+](C)c1.N#CN=C=[N-]
8. CC#N [acetonitrile] + CCCCn1cc[n+](C)c1.N#CN=C=[N-]

Result:
1: 36.5; 2: 83.9; 3: 21.2; 4: 1.12; 5: 1.21; 6: 17.3; 7: 18.7; 8: 0.844

Task: Give activity coefficient for the following compound: C1CCCC1 [cyclopentane] + CCCCn1cc[n+](C)c1.N#CN=C=[N-]
Result: 16.3
